A collection of compounds and their measured GI50
System: TK-10
procedureText: NCI tumour cell line growth inhibition, 48 h
The source made the active and inactive calls. No stated cut-off is given here; in the data, active = GI50 up to about 1.1 µM and inactive = higher.

Examples from the recorded data:
NC(=O)N/N=C1/c2ccccc2-n2nccc21 :: > 100 µM (inactive)
Clc1ccc(CCn2cncn2)c(Cl)c1 :: > 100 µM (inactive)
c1ccc(-c2sc(-c3ccccc3)c3c2C2CCC3C2)cc1 :: 27 µM (inactive)
CN(C(=O)C12C3C4C1C1C2C3C41C(=O)C(C)(C)C)C(C)(C)C (stereo not given) :: > 100 µM (inactive)

QUERY: Identify the measured GI50 of CCN(CC)CCOC(c1cc(OC)ccc1OC)c1ccc2n1-c1ccccc1OC2 (stereo not given) for TK-10.
RESULT: 12.1 µM (inactive)

QUERY: Again, but for COC(=O)c1cc2cc3c(c(O)c2c(=O)o1)O[C@@]1(Oc2c(O)c4c(c(O)c2[C@H]1OC1CC(OC)C(O)C(C)O1)C(=O)C=C(OC)C4=O)[C@H](O)C3 (stereo not given in full)
RESULT: 2.07 µM (inactive)

QUERY: Again, but for `CN(C)CCCN1c2ccccc2Sc2ccc3ccccc3c21`
RESULT: 4.45 µM (inactive)

Reference source for all entries: ChEMBL document CHEMBL1201862
